Recorded melting point values for a group of molecules are listed next.

CCOC(=O)c1ccccc1COc1ccc(C=O)cc1 | 60 to 62 °C
CCOC(=O)C=Cc1cc(Br)cc(C(O)c2ccc(F)cc2)c1 (stereo unspecified) | 82 to 84 °C
O=[N+]([O-])C=Cc1cccc2[nH]ccc12 | 152 to 154 °C

Just so you know, measured melting point for O=[N+]([O-])c1cccc(OCCCl)c1 came out at 54.5 to 57 °C

Just so you know, measured melting point for CCC1CC2C3CCC4=CC(=O)CCC4C3CCC2(C)C1O (stereo unspecified) came out at 150 to 152 °C

Just so you know, measured melting point for CC(C)(C)c1cc(C(c2ccc(C#N)cc2)N2CCCCC2)cc(C(C)(C)C)c1O (stereo unspecified) came out at 139 to 140 °C

* * *

REPORTED_PROPERTY: melting point

Just so you know, measured melting point for COC(=O)c1cc([N+](=O)[O-])c(N)c(F)c1F came out at 184 °C

Just so you know, measured melting point for CC(C(N)=O)c1ccc2c(c1)CC(=O)c1ccccc1S2 (stereo unspecified) came out at 184 to 186 °C

Just so you know, measured melting point for CCOC(=O)c1c(C)cc2cnc(-c3ccccc3Cl)nc2c1C came out at 69.5 to 70.5 °C

Just so you know, measured melting point for FC(F)(F)c1cccc(CNc2ncnc3ccccc23)c1 came out at 145 to 146 °C

Just so you know, measured melting point for O=C(Nc1cc(OCCCON=Cc2ccc(-c3ccccc3)cc2)ccc1C(=O)O)c1ccc(C(F)(F)F)cc1 came out at 206 to 207 °C

Just so you know, measured melting point for CSCCCn1cc(C2=C(c3cn(C)c4ccccc34)C(=O)NC2=O)c2ccccc21 came out at 222 to 224 °C

Just so you know, measured melting point for CSc1c(CO)sc2c1CCN(C)CC2c1ccccc1 (stereo unspecified) came out at 146 °C

Just so you know, measured melting point for COc1ccc(CC(C)CC(C(=O)C(CC(C)Cc2ccc(OC)c(OC)c2)N2C(=O)c3ccccc3C2=O)N2C(=O)c3ccccc3C2=O)cc1OC (stereo unspecified) came out at 128 °C

* * *

REPORTED_PROPERTY: melting point

CC(=O)Nc1ccc(C(C)(C)C)cc1[N+](=O)[O-] | 109 to 110 °C
Cc1c(CNC2CCCC2)[nH]c2c(C)c(NC(=O)c3ccc(OC[C@@H]4CCCO4)cc3)ccc12 | 107 to 109 °C
CC(Nc1ncccc1C#N)c1c(Cl)cccc1Cl (stereo not given) | 84.4 °C

Just so you know, measured melting point for Cc1cccc(-c2nc(N)sc2-c2ccc(F)c(-c3ccc(S(C)(=O)=O)cc3)c2)n1 came out at 202 to 204 °C

Just so you know, measured melting point for CC(C)(C)n1nnc(N)n1 came out at 114 to 115 °C

Just so you know, measured melting point for Cc1cc2c3c(ccc2cc1Br)OC(=O)C3 came out at 238 to 240 °C

Just so you know, measured melting point for Cn1nc(N)nc1NCCCOc1cccc(C2OCCO2)c1 came out at 117 to 118 °C

Just so you know, measured melting point for COCc1nnc(-c2cccnc2)n1-c1c(C)c(Cl)cc2[nH]c(=O)c(=O)[nH]c12 came out at > 300 °C

Just so you know, measured melting point for COc1ccc(N2CCOCC2)c2sc(-c3nc4ccc(N5CCCC5)nc4[nH]3)nc12 came out at 264 to 268 °C

Just so you know, measured melting point for O=C(c1ccccc1)c1ccc(N2CCCCC2)c([N+](=O)[O-])c1 came out at 77 °C

Cited source: a melting point compilation (Tetko et al.; mined from patent text by program, amines drawn as free bases though some values may be those of a salt)
